molecular target: D(2) dopamine receptor (Homo sapiens, UniProt P14416); experiment: Dopamine D2 Receptor Activity Assay; details: 37 °C
Sequence (P14416 whole entry): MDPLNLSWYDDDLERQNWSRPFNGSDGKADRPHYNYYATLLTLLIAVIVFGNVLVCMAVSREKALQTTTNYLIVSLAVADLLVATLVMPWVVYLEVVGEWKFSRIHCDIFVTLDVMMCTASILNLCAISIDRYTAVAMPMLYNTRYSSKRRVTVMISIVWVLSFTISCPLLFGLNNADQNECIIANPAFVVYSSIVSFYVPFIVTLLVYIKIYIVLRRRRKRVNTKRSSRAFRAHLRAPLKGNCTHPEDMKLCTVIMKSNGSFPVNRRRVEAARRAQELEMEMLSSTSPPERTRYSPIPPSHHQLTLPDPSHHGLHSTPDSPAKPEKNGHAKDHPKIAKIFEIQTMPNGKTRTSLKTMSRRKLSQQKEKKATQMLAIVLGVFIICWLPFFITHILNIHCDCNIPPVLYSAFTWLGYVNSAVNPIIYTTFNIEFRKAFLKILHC
Below: a set of entries, each annotated with reported pIC50.
Scale for pIC50: -log10 of concentration given in mol/L; no unit attached.

COc1ccc([C@@H]2CC(=O)c3c(O)cc(OCCCN4CCN(c5ccccc5OC)CC4)cc3O2)cc1
6.66
COc1ccc([C@@H]2CC(=O)c3c(O)cc(OCCCN4CCC(c5noc6cc(F)ccc56)CC4)cc3O2)cc1
6.94
O=C1C[C@@H](c2ccc(F)cc2)Oc2cc(OCCCCN3CCC(c4noc5cc(F)ccc45)CC3)cc(O)c21
7.06
COc1ccc([C@@H]2CC(=O)c3c(O)cc(OCCCCN4CCC(c5noc6cc(F)ccc56)CC4)cc3O2)cc1
7.29
COc1ccccc1N1CCN(CCCCOc2cc(O)c3c(c2)O[C@H](c2ccc(C)cc2)CC3=O)CC1
6.46

Input line: Param item = COc1ccccc1N1CCN(CCCCOc2cc(O)c3c(c2)O[C@H](c2ccc(F)cc2)CC3=O)CC1 ; retrieve measured pIC50.
Output line: 7.24

Input line: Follow-up item: COc1ccc([C@@H]2CC(=O)c3c(O)cc(OCCCCN4CCN(c5ccccc5OC)CC4)cc3O2)cc1
Output line: 6.69
